Listed binders paired with reported pIC50
Molecular target: T1, HA-GCN4 hAPRIL (amino acid residues 105-250) (human, UniProt O75888 105-250)
T1 construct: Bought (R&D Systems); also called HA-tagged GCN4 human APRIL; HA-GCN4-huAPRIL; not shown: N-terminal HA tag; GCN4 isoleucine zipper oligomerization domain
T1 sequence: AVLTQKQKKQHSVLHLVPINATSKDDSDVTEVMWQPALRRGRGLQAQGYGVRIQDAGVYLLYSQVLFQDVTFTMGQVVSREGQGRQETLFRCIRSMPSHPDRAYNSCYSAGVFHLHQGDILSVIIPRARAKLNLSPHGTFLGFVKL
Assay: blocking ELISA; blocked: human APRIL binding to TACI-Fc
pIC50: −log10 of the molar value.
recordedEndpoint: pIC50

binder	recordedEndpoint	value
monoclonal antibody 4540-063 (antibody, IgG1, V domains shown) VH: QVQLVQSGAELKKPGASVKVSCKASGYTFADYYMNWVRQAPGQGLEWMGWIFPGSGSTYYNQKFQGRVTMTVDKSSSTAYMELSRLRSDDTAVYYCARGDSGRAMDYWGQGTLVTVSS VL: DIQMTQSPSSLSASVGDRVTITCQASQDINKYLAWYQHKPGKAPKLLIHYTSTLETGVPSRFSGSGSGTDFTFTISSLQPEDIATYYCLQYDNLLTFGGGTKVEIK	pIC50	9.17
monoclonal antibody 4035-062 (antibody, IgG1, V domains shown) VH: QVQLQESGPGLVKPSETLSLTCTVSGFSLTIYDVHWVRQPPGKGLEWIGVIWSDGSTDYNPSLKSRVTISKDTSKNQVSLKLSSVTAADTAVYYCARNWVDQAWFAYWGQGTLVTVSS VL: DIQMTQSPSSLSASVGDRVTITCRASKNIYSYLAWYQQKPGKAPKLLVYNAKTLPEGVPSRFSGSGSGTDFTLTISSLQPEDFATYYCQHHYGTPLTFGQGTKLEIK	pIC50	9.59
4540-033 (antibody, V domains shown) VH: QVQLVQSGAEVKKPGASVKVSCKASGYTFADYYINWVRQAPGQGLEWMGWIFPGSGSTYYAQKLQGRVTMTTDTSTSTAYMELRSLRSDDTAVYYCARGDSGRAMDYWGQGTLVTVSS VL: DIQMTQSPSSLSASVGDRVTITCQASQDINKYLAWYQHKPGKAPKLLIHYTSTLETGVPSRFSGSGSGTDFTFTISSLQPEDIATYYCLQYDNLLTFGGGTKVEIK	pIC50	9.46
2419-1305 (antibody, V domains shown) VH: QVQLVQSGAEVKKPGASVKVSCKASGYTFTDYTIHWVRQATGQGLEWMGWIYPLRGSINYAQKFQGRVTMTANKSISTVYMELSSLRSEDTAVYFCARHGAYYSNAFDYWGQGTLVTVSS VL: EIVMTQSPATLSVSPGERATLSCRASESVDNDGIRFLHWYQQKPGQAPRLLIYRASNRETGIPARFSGSGSGTEFTLTISSLQSEDFAVYYCQQSNKDPYTFGGGTKVEIK	pIC50	9.54
monoclonal antibody 2419-1406 (antibody, V domains shown) VH: QVQLVQSGAEVKKPGASVKVSCKASGYTFTDYTIHWVRQATGQGLEWMGWIYPLRGSINYAQKFQGRVTMTADKSISTVYMELSSLRSEDTAVYFCARHGAYYSNAFDYWGQGTLVTVSS VL: EIVMTQSPATLSVSPGERATLSCRASESVDNDGIRFLHWYQQKPGQAPRLLIYRASTRATGIPARFSGSGSRTEFTLTISSLQSEDFAVYYCQQSNKDPYTFGGGTKVEIK	pIC50	9.62
